Origin of values: ChEMBL document CHEMBL1201862

# Tested on: MCF7
# assay procedure: NCI tumour cell line growth inhibition, 48 h
Calls of active or inactive are those of the source. Cut-off read from the data, not from the text of the source: active = GI50 up to about 1.1 µM and inactive = higher.
Answer with one of the outcomes active, inactive

Below, 3 molecules whose answers are already recorded.
molecule: Nc1ccccc1C(=O)NC(=O)Nc1ccc(Oc2ncc(Br)cn2)c(Cl)c1
category: active

molecule: COC(=O)C1=C(C(=O)OC)SC(=C2c3ccsc3-c3sccc32)S1
category: inactive

molecule: Cc1ccc(Nc2nc(N)nc3c2ncn3C2OC(CO)C(O)C2O)cc1 (centres undefined)
category: inactive

For the next question, use this molecule.
QUERY: Dear colleague, could you share the recorded outcome for COC(C)C(O)(C(=O)OCC1=CCN2CCC(O)C12)C(C)(C)O (centres undefined) when you have a moment?
RESULT: inactive
